Data credit: PubChem BioAssay AID2060618

I'd appreciate it if you could supply viability, T/C values for the items below.
- System: 454973-116-R2-J3-PDC spheroids, percent test/control viability
- assay-details: Anticancer human tumor 454973-116-R2-J3-PDC patient-derived pancreatic carcinoma cell line growth inhibition [CLK]
- test-parameters: second compound 1 µM; first compound 0.0316 µM; hits give low values; spheroids with HUVEC and MSC
One number for each entry, in %.

List viability, T/C for every entry below, keeping the order given.
1. COC1C=CCC(C)C(C)S(=O)(=O)NC(=O)c2ccc3c(c2)N(CC2CCC21)CC1(CCCc2cc(Cl)ccc21)CO3 (stereo unspecified) + CNC(=O)c1ccc(Nc2nc(OC3CCCC3)c3c(-c4ccc5nc(C)oc5c4)c[nH]c3n2)c(OC)c1
2. CC(=O)O[C@H]1C(=O)[C@@]2(C)[C@H]([C@H](OC(=O)c3ccccc3)[C@]3(O)C[C@H](OC(=O)[C@H](O)[C@@H](NC(=O)c4ccccc4)c4ccccc4)C(C)=C1C3(C)C)[C@]1(OC(C)=O)CO[C@@H]1C[C@@H]2O + CNC(=O)c1ccc(Nc2nc(OC3CCCC3)c3c(-c4ccc5nc(C)oc5c4)c[nH]c3n2)c(OC)c1
3. C=CC(=O)N1CCN(c2nc(=O)n(-c3c(C)ccnc3C(C)C)c3nc(-c4c(O)cccc4F)c(F)cc23)C(C)C1 (stereo unspecified) + CNC(=O)c1ccc(Nc2nc(OC3CCCC3)c3c(-c4ccc5nc(C)oc5c4)c[nH]c3n2)c(OC)c1
4. COc1cccc2c1C(=O)c1c(O)c3c(c(O)c1C2=O)CC(O)(C(=O)CO)CC3OC1CC(N)C(O)C(C)O1 (stereo unspecified) + CN1CCN(c2cc(C(=O)Nc3cc4cc(-c5cnn(C)c5)ccc4cn3)ccn2)CC1
5. CC(=O)O[C@H]1C(=O)[C@@]2(C)[C@H]([C@H](OC(=O)c3ccccc3)[C@]3(O)C[C@H](OC(=O)[C@H](O)[C@@H](NC(=O)c4ccccc4)c4ccccc4)C(C)=C1C3(C)C)[C@]1(OC(C)=O)CO[C@@H]1C[C@@H]2O + CN1CCN(c2cc(C(=O)Nc3cc4cc(-c5cnn(C)c5)ccc4cn3)ccn2)CC1

Key:
[30.2, 45.3, 28.5, 0.11, 0.11]

Exercise: Give reported viability, T/C for Nc1ccccc1NC(=O)c1ccc(CNC(=O)OCc2cccnc2)cc1 + CNC(=O)c1ccc(Nc2nc(OC3CCCC3)c3c(-c4ccc5nc(C)oc5c4)c[nH]c3n2)c(OC)c1 (454973-116-R2-J3-PDC spheroids, percent test/control viability)
Key: 29.1

###

Provide the recorded viability, T/C for the entries that follow.
- Tested on: 454973-116-R2-J3-PDC spheroids, percent test/control viability
- assay-details: Anticancer human tumor 454973-116-R2-J3-PDC cell line growth inhibition [CLK];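 further: spheroids exposed to compounds for 7 days before readout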
- test-parameters: second compound 0.1 µM; first compound 3.16 µM; hits give low values; spheroids with HUVEC and MSC
Answers are plain numbers, in %.

Illustrative cases are given below, each with its answer.
C=C(F)C(=O)N1CCN(c2nc(OCC3CCCN3C)nc3c2CCN(c2cccc4cccc(Cl)c24)C3)CC1CC#N (stereo not drawn) + CN1CCN(c2cc(C(=O)Nc3cc4cc(-c5cnn(C)c5)ccc4cn3)ccn2)CC1	91.9
Nc1ccccc1NC(=O)c1ccc(CNC(=O)OCc2cccnc2)cc1 + CN1CCN(c2cc(C(=O)Nc3cc4cc(-c5cnn(C)c5)ccc4cn3)ccn2)CC1	24.1

// moving on: another record for viability, T/C
Exercise: Look up and state reported viability, T/C for COc1cccc2c1C(=O)c1c(O)c3c(c(O)c1C2=O)CC(O)(C(=O)CO)CC3OC1CC(N)C(O)C(C)O1 (stereo not drawn) + CNC(=O)c1ccc(Nc2nc(OC3CCCC3)c3c(-c4ccc5nc(C)oc5c4)c[nH]c3n2)c(OC)c1
Key: 2.62
